What TGI was measured for each of the following?
# Test system: DU-145 prostate
# Assay Protocol: NCI tumour cell line growth inhibition, 48 h

Molecule	Study Target	Value Observed
Cl.[O-]c1cccc2cccnc12.[O-]c1cccc2cccnc12.[O-]c1cccc2cccnc12.[O-]c1cccc2cccnc12.[Ti+4]	DU-145 prostate	> 100 µM
Nc1n[nH]c(N)n1	DU-145 prostate	> 10000 µM
CCOC(=O)C12CCC(c3c(C)cccc3C)(O1)C(C(=O)OC)=C2C(=O)OC (stereo not drawn)	DU-145 prostate	> 10 µM

Okay, here is my list. What is TGI for each of these?
1. Oc1ccccc1/C=N\Nc1ccccc1
2. COC(=O)CCc1cc(OC)c2oc(-c3ccc(OC)c(OC)c3)c(CO)c2c1
3. O=C(O)c1ccccc1/C=N\N(CCO)C1=NCCN1
4. CN(C)C[C@@H]1CCn2cc(c3ccccc32)C2=C(C(=O)NC2=O)c2cn(c3ccccc23)CCO1
5. CSc1nc(SC)c2c(C)c(Br)[nH]c2n1

Response:
> 100 µM
> 100 µM
> 100 µM
> 10 µM
> 100 µM

---

# Tested on: SK-MEL-2 melanoma
# Assay Protocol: NCI tumour cell line growth inhibition, 48 h
Tick Condition met if TGI is 30 µM or greater. Tick Condition not met if TGI is less than 30 µM.

As a guide, the following entries are already answered.
Compound	Assigned Class
c1ccc(N2CCN(CCCN3CCc4c([nH]c5ccccc45)C3c3cccnc3)CC2)cc1 (stereo unspecified)	Condition met
COc1ccccc1NC(=O)C(=O)C(c1cnc2ccc([N+](=O)[O-])cc2n1)[N+](=O)[O-] (stereo unspecified)	Condition met
Oc1ccccc1/C=N\Nc1ccccc1	Condition met
CCN(CC)CCC(=O)Nc1ccc2sc3ccccc3c(=O)c2n1	Condition met
CC(C)(CN1CCCCC1)C(=O)CC(SCCS(=O)(=O)O)c1ccccc1 (stereo unspecified)	Condition met
O=C(OCC1CC(C2(O)CCCCC2)C(=O)O1)c1ccccc1 (stereo unspecified)	Condition met
O=C(CO)CC(=O)C(=O)Nc1cccc(C(F)(F)F)c1	Condition met
COc1ccc(-c2ccc(-c3ccc(C(=N)N)cc3)s2)cc1Cl	Condition not met
COc1ccccc1/C=C1\CCC(CN2CCOCC2)C1=O (stereo unspecified)	Condition met
CCCn1cc(/C=N\N=C2\C(=O)Nc3ccc(C)cc32)c2ccccc21	Condition not met

Query: Hi, just wondering whether O=C(N/N=C\c1ccc(Cl)cc1)Nc1cccc2ccccc12 shows TGI of 30 µM or higher.
Response: Condition met

Query: Does the reported TGI for c1cc2cc(Cc3ccc4[nH]ccc4c3)ccc2[nH]1 fall at or above the 30 µM mark?
Response: Condition met

Query: # check: TGI of CC(C)C1CCC(=O)CC1CCCCC1CC(=O)CC1O[Si](C)(C)C(C)(C)C (stereo unspecified) is greater than or equal to 30 µM
Response: Condition not met

Query: Check this compound for TGI at or above 30 µM: CCCc1cn2c(/C=N/N=C(N)N)c(-c3ccc([N+](=O)[O-])cc3)nc2s1
Response: Condition not met

Query: Determine whether measured TGI meets or exceeds 30 µM for O=[N+]([O-])c1cc(C(F)(F)F)cc2c1SC1=Nc3ccccc3CN12
Response: Condition met

Query: Kindly determine if TGI recorded for O=C(CS(=O)c1nc2ccccc2nc1-c1ccccc1)Nc1ccc(Cl)cc1 (stereo unspecified) is above or exactly 30 µM.
Response: Condition met

Query: Is reported TGI greater than or equal to 30 µM here: CN(C)c1ccc2cc3c(cc2c1)Oc1ccccc1N3.[Cl][Zn][Cl]
Response: Condition met

---

# Tested on: NCI-H23 lung
# Assay Protocol: NCI tumour cell line growth inhibition, 48 h
Readout: TGI

// worked examples, TGI included
Compound	Study Target	Value Observed
COc1cc(C2SCC(=O)N2c2ccc(Cl)cc2)cc(OC)c1OC (stereo not given)	NCI-H23 lung	> 100 µM
C=C1CCCC2OC(OC)CCC12 (stereo not given)	NCI-H23 lung	> 100 µM
COC(=O)/C(=N\Nc1nc(=S)[nH]n1N)C(C#N)c1ccc(Cl)cc1 (stereo not given)	NCI-H23 lung	> 100 µM
O=C1Nc2n[nH]c(=S)n2NC12c1ccccc1-c1ccccc12	NCI-H23 lung	> 100 µM

Hi! Can you tell me TGI for each of these compounds?
1. Oc1ccccc1CNCc1ccccc1O
2. CC(=O)C(C(=O)C(=O)Nc1cc(Cl)c(Cl)cc1Cl)c1csc(N)n1 (stereo not given)
3. Cc1c2c(n3c(nc4ccccc43)c1C#N)NCC2
4. O=C1CS(=O)c2ccccc2N1 (stereo not given)
5. Cc1ccc2nc(-c3nccn3C)cc(C(=O)NC(C)CN(C)C)c2c1 (stereo not given)
6. CC(O)(c1ccc(OCCC[N+](C)(C)C)cc1)C(C)(O)c1ccc(OCCC[N+](C)(C)C)cc1 (stereo not given)

Response:
["> 100 µM", "> 100 µM", "> 10 µM", "> 100 µM", "> 100 µM", "> 100 µM"]

---

# System: CCRF-CEM leukemia
# Assay Protocol: NCI tumour cell line growth inhibition, 48 h
Readout: TGI

N#CCCN(c1ccc(C=Nc2ccc(C(=O)O)cc2)cc1)S(=O)(=O)c1ccccc1 > 100 µM
COc1cc(Cn2c3ccccc3c3cc(C)cc(OC)c32)cc2c1[nH]c1ccccc12 > 25 µM

Query: TGI; subject: N#C/C(=C\c1ccccc1F)C(=O)c1ccccc1
Response: > 100 µM

---

# Test system: U251 CNS
# Assay Protocol: NCI tumour cell line growth inhibition, 48 h
Readout: TGI (µM)
One number for each entry, in µM.

Example compounds with recorded TGI:
Compound	Unit Abbreviation	TGI
CCCCCCCCCCCCSC1=CC(=O)C=CC1=O	µM	4.57
CCN(CC)CCOc1ccc(NC(=O)C(C(C)C)N2C(=O)/C(=C/c3ccc(Br)cc3)SC2=S)cc1 (stereo unspecified)	µM	4.08

Please look at the following compound next.
Query: Record lookup: for U251 CNS, what TGI belongs to O=C(CS(=O)c1nc2ccccc2nc1-c1ccccc1)Nc1ccc(Cl)cc1 (stereo unspecified) ?
Response: 61.6

---

Could you please report measured TGI for the items listed next?
# System: OVCAR-8 ovarian
# Assay Protocol: NCI tumour cell line growth inhibition, 48 h

Compound	Study Target	Readout	Value Observed
CCCC1(N2C(=O)c3ccc4c5c(ccc(c35)C2=O)N(C2(CCC)CCCCC2)C4=O)CCCCC1	OVCAR-8 ovarian	TGI	> 100 µM
CC(C)(C)C1CCC2c3c([nH]c4ccccc34)C3C(=O)N(c4cc(Cl)ccc4Cl)C(=O)C3C2C1 (stereo not given)	OVCAR-8 ovarian	TGI	> 100 µM
CN(CCc1ccccn1)/[N+]([O-])=N/O (tested in a mixture with another compound)	OVCAR-8 ovarian	TGI	> 100 µM
CC(=O)OC1CC2C(=O)CC1(C)C2(C)C (stereo not given)	OVCAR-8 ovarian	TGI	> 100 µM

Shifting focus to the compound that follows.
Query: Which TGI value is on record for N#Cc1ccc(C(=O)c2cnn(-c3ccc(F)cc3)c2N)cc1 ?
Response: > 25 µM

---

# System: EKVX NSCLC
# Assay Protocol: NCI tumour cell line growth inhibition, 48 h
Readout: TGI

Recorded TGI, per entry:
Molecule	Study Target	TGI
CCOC(=O)Cc1ccc(Nc2nc3cc(F)c(F)cc3nc2C(=O)OCC)cc1	EKVX NSCLC	56.4 µM
Nc1nc(N)c2c(-c3ccccc3)ccnc2n1	EKVX NSCLC	> 100 µM
CC(C)OP(=O)(OC(C)C)/C(=N/Nc1ccc([N+](=O)[O-])cc1)NNC(=O)c1ccccc1	EKVX NSCLC	> 100 µM
CC(Oc1ccc2c(=O)cc(-c3ccccc3)oc2c1)C(=O)O (configuration not stated)	EKVX NSCLC	> 100 µM
Cc1cnc(-c2ccc(-c3ccc(NC(=O)Nc4cccc(C(F)(F)F)c4)cc3F)c3c2C(=O)NC3)[nH]1	EKVX NSCLC	> 50.6 µM
CC[C@H](C)[C@H](NC(=O)[C@H]1CCCCN1C)C(=O)N(C)[C@H](C[C@@H](OC(C)=O)c1nc(C(=O)NC23C4C5C2C2C3C4C52C(=O)OC)cs1)C(C)C (some centres not stated)	EKVX NSCLC	> 25 µM
CC1=C(C(=O)Nc2ccccc2C)C(c2ccccc2O)C(C(=O)Nc2ccccc2C)=C(C)N1	EKVX NSCLC	> 100 µM
Cc1cc(S(=O)(=O)Nc2nnc3c(Cl)cc(C(F)(F)F)cn23)c(S)cc1Cl	EKVX NSCLC	> 100 µM
CN(C)C1(N(C)C)Oc2c(c(=O)n(C)c(=O)n2C)C(c2ccc(F)cc2)C1(F)F (configuration not stated)	EKVX NSCLC	> 100 µM
O=C(O)c1ccccc1/C=N\N(CCO)C1=NCCN1	EKVX NSCLC	> 100 µM

Below is a list of molecules. For each, state its recorded TGI.
1. CCOC(=O)Nc1cc2c(c(N)n1)N=C(c1ccccc1)CN2
2. O=c1[nH]c(Br)nc2n[nH]nc12
3. CC(Cn1c(=O)oc2ccccc21)N(C)C (configuration not stated)
4. CCCCCCc1cc2cc(-c3cn4ccccc4n3)c(=O)oc2cc1O
5. CC(c1ccccc1)n1c2ccccc2c2c(N)ncnc21 (configuration not stated)
6. CC(=O)OC1CC2C(=O)CC1(C)C2(C)C (configuration not stated)
7. N#Cc1c2c(c(Nc3cccc(C(F)(F)F)c3)n3c1nc1ccccc13)CCCC2

Response:
46.6 µM
> 100 µM
> 100 µM
45.4 µM
24.7 µM
> 100 µM
62.4 µM
